assay_explanation: folding stability dG unfold (combined trypsin and chymotrypsin); higher = more stable
Param threshold (1 kcal/mol) applies to folding stability dG unfold; output class 1 when value >= threshold, class 0 when value < threshold.

| sequence_code | category_label |
| --- | --- |
| SAGGSAMPEDTPFVVTKTTEYRLPDGSRVTFEPVPETGKTLVTFTPPDGSSERVWLTPEEAEKLLASAGGSA [r15_2_JUSTAS] | class 1 |
| SAGGSAMKITITVEKKEDGTYRVTIEIDGKKIEIEMSVEDLKKKLEELAKELFPDKPIKVEVKPVPSAGGSA [r15_925_TrROS_Hall] | class 1 |
| SAGGSAGGSAGGKIIHPDLKKPLDVLEKFELIIGGKPYLFFLSRGEGELRLLVIPAGKESAGGSAGGSAGGS [r10_517_TrMRF] | class 1 |

Is folding stability dG unfold for SAGGSAPPFYIAINPDKPKSIHIMPPGSPDMRDDDGSKVIPFRTEEEFLKLIQEIKKKGVDKIHIYSAGGSA [r15_1004_TrROS] at or above 1 kcal/mol?
class 0

Form field: folding stability dG unfold at least 1 kcal/mol? Entry: SAMVLRIKVEVNGETKEIEIELPPNAKIEKKDGELTIYVKNPETGKIFKFKFKKNAKIVEVEEVDPEDLSAG [r14_313_TrROS_Hall]
class 1

Reported folding stability dG unfold at or above 1 kcal/mol? SAGGSAGGTAEQIREIVEQLFRKRGMEPKKIEIKRVERNGDKVTIEVEWRWDNGRKRPRNIQIPSAGGSAGG [r6_841_TrROS]
class 1

Please check the record SAGGSAGGSAGGMSLSTSVESLTVFDSSGNVLEERTITVEKTVPLFGKPVYVYPTPSNTLSAGGSAGGSAGG [r17_325_JUSTAS] and state if its folding stability dG unfold is at or above 1 kcal/mol.
class 0

Has SSDIKIEIDIERNDDGYLTFTIEIRHPDPQQLVDAAKEIILELFPPGVNIDVEPHPDGWVKAPIMFPLPKSA [r9_646_TrROS] a recorded folding stability dG unfold greater than or equal to 1 kcal/mol?
class 1

Quick check, folding stability dG unfold >= 1 kcal/mol? SAGGSAGGSMKNIKEIKVERRKLPNGGEYYVVTITYPDGKEIIIEMSPEETLEEALEKAKELSSAGGSAGGS [r12_1047_JUSTAS]
class 1

Hi team, for SAGMSFTVTTVGSPGPTTPRVVIEPPDRVVVISRLPDGSYEVRYYDPSPPVELERRRLAPEEAIAELLSAGG [r19_188_JUSTAS] , is the recorded folding stability dG unfold at or above 1 kcal/mol?
class 0

Is reported folding stability dG unfold greater than or equal to 1 kcal/mol here: SAGGSAGGSAGKKVVTIDIPIDNPEELEVAEEIAREAAKELGVPPEEIPVTWEGNYLRIESAGGSAGGSAGG [r11_218_TrMRF]
class 0

Tell me whether folding stability dG unfold is at least 1 kcal/mol here: SAGGSAGGEISPEDIESVETETRTLPNGLKITRTRVRVKKTNQWFELVRIEPLPAEELSEEELKSAGGSAGG [r6_757_TrROS_Hall]
class 1

Does the sequence SAGGSAGGMKTIPLPGWTPEEFREVIKKHGGTFTIERPGGEKVTVDFTPDSEPPPEEPHTLIISSAGGSAGG [r6_304_JUSTAS] have recorded folding stability dG unfold that is 1 kcal/mol or more?
class 0

# credit: the supplement of paper PMC12764529
